Assay: in vivo
Details: male, Sprague-Dawley, rat, plasma, iv, 3 mg/kg
MEASURE: level at 5 min

Per the records, this compound ( CC(C)C[C@@H]1NC(=O)[C@H](CCCNC(=N)N)NC(=O)[C@@H](N)CC=CC[C@@H](C(=O)N[C@@H](CCCCN)C(=O)NCC(=O)N2CCC[C@H]2C(=O)N[C@H](Cc2ccc3ccccc3c2)C(=O)O)NC(=O)[C@H](CO)NC1=O [Compound 43, NH2-c[X-R-L-S-X]c-K-G-P-(D-2Nal)] ) has level at 5 min equal to 36100 ng/mL
